# MEASUREMENT_TARGET: recombinant human PARP (Homo sapiens, UniProt P09874)
# Sequence (P09874 whole entry): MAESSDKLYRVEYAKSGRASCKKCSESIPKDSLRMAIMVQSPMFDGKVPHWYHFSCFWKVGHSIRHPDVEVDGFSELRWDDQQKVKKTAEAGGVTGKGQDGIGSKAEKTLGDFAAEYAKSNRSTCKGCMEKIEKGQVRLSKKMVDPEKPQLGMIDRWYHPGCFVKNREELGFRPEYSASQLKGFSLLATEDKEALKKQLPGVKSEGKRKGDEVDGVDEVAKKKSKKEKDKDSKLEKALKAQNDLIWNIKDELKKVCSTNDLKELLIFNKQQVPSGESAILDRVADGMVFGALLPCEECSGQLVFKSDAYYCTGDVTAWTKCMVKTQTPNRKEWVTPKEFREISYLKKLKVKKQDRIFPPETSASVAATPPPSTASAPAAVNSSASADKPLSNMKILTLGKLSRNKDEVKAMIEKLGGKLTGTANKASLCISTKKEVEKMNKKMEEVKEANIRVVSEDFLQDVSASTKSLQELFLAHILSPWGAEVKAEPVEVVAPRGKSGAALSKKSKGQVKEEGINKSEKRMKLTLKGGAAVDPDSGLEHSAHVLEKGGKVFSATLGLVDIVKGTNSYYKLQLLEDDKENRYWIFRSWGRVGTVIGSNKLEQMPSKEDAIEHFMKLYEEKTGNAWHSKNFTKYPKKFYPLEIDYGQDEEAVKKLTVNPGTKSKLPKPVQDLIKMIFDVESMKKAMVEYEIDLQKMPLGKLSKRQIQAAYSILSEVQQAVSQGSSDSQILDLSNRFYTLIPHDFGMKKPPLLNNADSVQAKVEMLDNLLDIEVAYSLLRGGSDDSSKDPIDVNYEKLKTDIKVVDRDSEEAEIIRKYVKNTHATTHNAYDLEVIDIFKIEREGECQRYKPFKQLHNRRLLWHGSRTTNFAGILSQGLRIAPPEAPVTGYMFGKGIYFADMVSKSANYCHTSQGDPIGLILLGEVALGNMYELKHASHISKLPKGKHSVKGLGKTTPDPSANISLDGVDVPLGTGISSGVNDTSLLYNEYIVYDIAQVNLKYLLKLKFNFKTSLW
# RUN_DESCRIPTION: PARP enzyme activity inhibitory action
# DETAILS: recombinant human PARP (Trevigen), 3H-NAD, activated DNA, 25° C. for 15 min
# Protocol: After incubation at 25° C. for 15 min., the reaction was stopped by adding 20% trichloroacetic acid, and the resulting acid insoluble fraction was adsorbed to a GF/B filter. Then, the filter was washed several times with 5% trichloroacetic acid, and the radioactivity on the filter was measured with a liquid scintillation counter.
Answer each item with its documented IC50.
Numbers only, in nM.

Here is how some compounds turned out for IC50.
Asked: Observed IC50 on recombinant human PARP (Homo sapiens, UniProt P09874) for Cc1[nH]c(=O)c2ccccc2c1CN1CCCC1 [Ex. 25] , please.
Given back: 67

Asked: Observed IC50 on recombinant human PARP (Homo sapiens, UniProt P09874) for CN1CCC(c2c[nH]c(=O)c3cc(Cl)ccc23)CC1 [Ex. 46] , please.
Given back: 37

Asked: Observed IC50 on recombinant human PARP (Homo sapiens, UniProt P09874) for CCN1CCC(c2c[nH]c(=O)c3cc(F)ccc23)CC1 [Ex. 212] , please.
Given back: 47

Asked: Observed IC50 on recombinant human PARP (Homo sapiens, UniProt P09874) for CCN1CCC(c2nn(C)c3[nH]c(=O)c4cc(F)ccc4c23)CC1 [Ex. 223] , please.
Given back: 30

Next, consider the following compound.
Asked: Observed IC50 on recombinant human PARP (Homo sapiens, UniProt P09874) for CCCN1CCC(c2nn(C)c3[nH]c(=O)c4ccccc4c23)CC1 [Ex. 226] , please.
Given back: 47

---

Answer each item with its documented melting point.
Where a name gives a salt, the structure may show the parent alone.

Here is how some compounds turned out for melting point.
Asked: Fill in: melting point of CN1CCC(c2c[nH]c(=O)c3cc(C(F)(F)F)ccc23)CC1 (as salt: hydrochloride) [Example 198] is ___
Given back: 231.8 to 234.6 °C

Asked: Fill in: melting point of CN1CCC(c2c[nH]c(=O)c3c(F)cccc23)CC1 is ___
Given back: 227.6 to 229.3 °C

Batch: melting point for all items listed.
1. Cc1ccc2c(C3CCN(C)CC3)c[nH]c(=O)c2c1
2. COc1ccc2c(C3CCN(C)CC3)c[nH]c(=O)c2c1 [Example 201]

Given back:
["212.8 to 214.8 °C", "224.9 to 226.2 °C"]

---

Answer each item with its documented pIC50.
# MEASUREMENT_TARGET: recombinant human PARP (Homo sapiens)
# RUN_DESCRIPTION: PARP enzyme activity inhibitory action
# DETAILS: recombinant human PARP (Trevigen), 3H-NAD, activated DNA, 25° C. for 15 min
Structures can show the parent of a compound that is named as a salt.
Answers are plain numbers, as −log10 of the molar value.

Asked: Fill in: pIC50 of O=c1[nH]cc(C2CCNCC2)c2ccc(Cl)cc12 [Ex. 44, hydrochloride] is ___
Given back: 7.66

Asked: Fill in: pIC50 of Cc1[nH]c(=O)c2cc(F)ccc2c1CN1CCCC1 is ___
Given back: 7.35

Asked: Fill in: pIC50 of CCN1CCC(c2nn(C)c3[nH]c(=O)c4ccccc4c23)CC1 is ___
Given back: 7.60

Batch: pIC50 for all items listed.
1. Cc1[nH]c(=O)c2cc(Cl)ccc2c1CN1CCCC1
2. Cn1nc(C2CCNCC2)c2c3ccc(F)cc3c(=O)[nH]c21 [Ex. 221, hydrochloride]

Given back:
7.41
7.52

Batch: pIC50 for all items listed.
1. CN(C)CC(=O)c1c(N)[nH]c(=O)c2cc(F)ccc12 [Ex. 14, hydrochloride]
2. O=c1[nH]cc(C2CCN(CCO)CC2)c2ccc(F)cc12 [Ex. 48, hydrochloride]
3. CN1CCC(c2nn(C)c3[nH]c(=O)c4cc(F)ccc4c23)CC1
4. CCCN1CCC(c2nn(C)c3[nH]c(=O)c4cc(F)ccc4c23)CC1
5. Cn1nc(CN2CCCC2)c2c3ccccc3c(=O)[nH]c21
6. O=C1NCCc2c(OCCCCN3CCCCC3)cccc21 [DPQ, reference compound]
7. O=c1[nH]cc(C2CCNCC2)c2ccc(F)cc12 [Ex. 45, hydrochloride]
8. O=c1[nH]cc(C2CCN(CCO)CC2)c2ccccc12

Given back:
1. 7.40
2. 7.62
3. 7.36
4. 7.38
5. 7.49
6. 6.00
7. 7.66
8. 7.47
